# Test system: U-937 (histiocytic lymphoma) human cancer cell line
# test description: cells
# condition context: U-937, 48 h, read-out: Doxorubicin IC50 (μM) in U-937, 48 h, 4,000 cells/well, 384 plate, 50 μL volume, Dextrin Nano-Particle 0.001 mg/mL
measured quantity: IC50

INSERT INTO assay_data (compound, value_reported) VALUES
  ('COc1cccc2c1C(=O)c1c(O)c3c(c(O)c1C2=O)C[C@@](O)(C(=O)CO)C[C@@H]3O[C@H]1C[C@H](N)[C@H](O)[C@H](C)O1 [Doxorubicin]', '0.018 µM');

====

# Test system: U-937 (histiocytic lymphoma) human cancer cell line
# test description: cells
# condition context: U-937, 48 h, read-out: Doxorubicin IC50 (μM) in U-937, 48 h, 40,000 cells/well, 48 plate, 700 μL volume, Dextrin Nano-Particle 0.000001 mg/mL
measured quantity: IC50

INSERT INTO measurements (chemical_smiles, value_reported) VALUES
  ('COc1cccc2c1C(=O)c1c(O)c3c(c(O)c1C2=O)C[C@@](O)(C(=O)CO)C[C@@H]3O[C@H]1C[C@H](N)[C@H](O)[C@H](C)O1', '0.2 µM');

====

# Test system: U-937 (histiocytic lymphoma) human cancer cell line
# test description: cells
# condition context: U-937, 48 h, read-out: Doxorubicin IC50 (μM) in U-937, 48 h, 40,000 cells/well, 48 plate, 700 μL volume, Dextrin Nano-Particle 0.25 mg/mL
measured quantity: IC50 (µM)

INSERT INTO measurements (compound, target_or_test_system, value_reported) VALUES
  ('COc1cccc2c1C(=O)c1c(O)c3c(c(O)c1C2=O)C[C@@](O)(C(=O)CO)C[C@@H]3O[C@H]1C[C@H](N)[C@H](O)[C@H](C)O1 [Doxorubicin]', 'U-937 (histiocytic lymphoma) human cancer cell line', 6.25);

====

# System: U-937 (histiocytic lymphoma) human cancer cell line
# test description: cells
# condition context: U-937, 48 h, read-out: Doxorubicin IC50 (μM) in U-937, 48 h, 40,000 cells/well, 48 plate, 700 μL volume, Dextrin Nano-Particle 0.001666 mg/mL
measured quantity: IC50 (µM)

INSERT INTO measurements (chemical_smiles, value_reported) VALUES
  ('COc1cccc2c1C(=O)c1c(O)c3c(c(O)c1C2=O)C[C@@](O)(C(=O)CO)C[C@@H]3O[C@H]1C[C@H](N)[C@H](O)[C@H](C)O1', 0.2);

====

# Tested on: U-937 (histiocytic lymphoma) human cancer cell line
# test description: cells
# condition context: U-937, 48 h, read-out: Doxorubicin IC50 (μM) in U-937, 48 h, 40,000 cells/well, 48 plate, 700 μL volume, Dextrin Nano-Particle 0.01 mg/mL
measured quantity: IC50

INSERT INTO results (chemical_smiles, measured_quantity, value_reported) VALUES
  ('COc1cccc2c1C(=O)c1c(O)c3c(c(O)c1C2=O)C[C@@](O)(C(=O)CO)C[C@@H]3O[C@H]1C[C@H](N)[C@H](O)[C@H](C)O1', 'IC50', '4.83 µM');
